experiment: Mouse PK study (oral pharmacokinetics); format: in vivo; details: male, 10 mg/kg, CD-1 mice, plasma, read-out: AUC indicator (oral AUC)
# AUC per entry
READOUT TYPE: AUC

>>> df
                                    molecule         endpoint_result
 0  Cc1ncccc1Oc1cc(SCC2CC2)cnc1Nc1nc([C@H](O)CO)ns1.Cl [Example 136]  10000 to 20000 ng·h/mL
 1  Cc1ncccc1Oc1cc(Sc2ccccn2)cnc1Nc1nc([C@H](O)CO)ns1.Cl [Example 134]  10000 to 20000 ng·h/mL
 2  COCCSc1cnc(Nc2nc([C@H](O)CO)ns2)c(Oc2cccnc2C)c1.Cl [Example 144]   5000 to 10000 ng·h/mL
 3  CCc1ncccc1Oc1cc(Sc2ccccn2)cnc1Nc1nc([C@H](O)[C@@H](O)COC)ns1.Cl [Example 145]   5000 to 10000 ng·h/mL
 4  CCn1nccc1Oc1cc(Sc2ccccn2)cnc1Nc1nc([C@H](O)CO)ns1.Cl [Example 139]         > 20000 ng·h/mL
 5  COCCSc1cnc(Nc2nc([C@H](O)CO)ns2)c(Oc2c(C)nn(C)c2C)c1.Cl [Example 148]    1000 to 5000 ng·h/mL
 6  Cc1ncccc1Oc1cc(Sc2ccccn2)cnc1Nc1nc([C@@H](O)CO)ns1 [Example 149]   5000 to 10000 ng·h/mL
 7  CCn1nccc1Oc1cc(Sc2ccccn2)cnc1Nc1nc([C@H](O)C(C)(C)O)ns1.Cl [Example 140]         > 20000 ng·h/mL
 8  Cc1ccnc(C)c1Oc1cc(Sc2ccccn2)cnc1Nc1nc([C@H](O)CO)ns1.Cl [Example 142]    1000 to 5000 ng·h/mL
 9  CCc1ncccc1Oc1cc(Sc2ccccn2)cnc1Nc1nc([C@H](O)CO)ns1 [Example 137]   5000 to 10000 ng·h/mL
10  Cc1nn(C)c(C)c1Oc1cc(Sc2ccccn2)cnc1Nc1nc([C@H](O)CO)ns1.Cl [Example 147]    1000 to 5000 ng·h/mL
11  Cc1nn(C)c(C)c1Oc1cc(Sc2ccccn2)cnc1Nc1nc([C@H](O)C(C)(C)O)ns1.Cl [Example 146]  10000 to 20000 ng·h/mL
12  Cc1cccnc1Sc1cnc(Nc2nc([C@H](O)CO)ns2)c(Oc2cccnc2C)c1.Cl [Example 141]    1000 to 5000 ng·h/mL
13  COCCCSc1cnc(Nc2nc([C@H](O)CO)ns2)c(Oc2cccnc2C)c1.Cl [Example 138]    1000 to 5000 ng·h/mL
14  Cc1ccc(Oc2cc(Sc3ccccn3)cnc2Nc2nc([C@H](O)CO)ns2)c(C)n1.Cl [Example 135]   5000 to 10000 ng·h/mL
15  Cc1ncccc1Oc1cc(Sc2ccccn2)cnc1Nc1nc([C@](C)(O)CO)ns1.Cl [Example 150]  10000 to 20000 ng·h/mL
16  Cc1ncccc1Oc1cc(Sc2ccccn2)cnc1Nc1nc([C@@](C)(O)CO)ns1.Cl [Example 151]         > 20000 ng·h/mL
17  Cc1ncccc1Oc1cc(Sc2ccccn2)cnc1Nc1nc([C@H](O)C(C)(C)O)ns1.Cl [Example 143]         > 20000 ng·h/mL
